Origin of the recorded values: patent US12559506B2

compounds and their reported DC50
target: G2019S LRRK2 (Homo sapiens, UniProt Q5S007, G2019S); construct: expressed in transfected cells; host or cells: HEK293 (ATCC CRL-1573), transient transfection, mammalian expression vector with ubiquitin promoter; assay: LRRK2 degradation assay, HiBit-tagged G2019S LRRK2 expressed from plasmid in HEK293 cells (Nano-Glo Dual-Luciferase); type: cell-based; conditions: HiBit-tagged G2019S LRRK2 in HEK293 cells, 24 hours
Sequence (Q5S007 whole entry G2019S): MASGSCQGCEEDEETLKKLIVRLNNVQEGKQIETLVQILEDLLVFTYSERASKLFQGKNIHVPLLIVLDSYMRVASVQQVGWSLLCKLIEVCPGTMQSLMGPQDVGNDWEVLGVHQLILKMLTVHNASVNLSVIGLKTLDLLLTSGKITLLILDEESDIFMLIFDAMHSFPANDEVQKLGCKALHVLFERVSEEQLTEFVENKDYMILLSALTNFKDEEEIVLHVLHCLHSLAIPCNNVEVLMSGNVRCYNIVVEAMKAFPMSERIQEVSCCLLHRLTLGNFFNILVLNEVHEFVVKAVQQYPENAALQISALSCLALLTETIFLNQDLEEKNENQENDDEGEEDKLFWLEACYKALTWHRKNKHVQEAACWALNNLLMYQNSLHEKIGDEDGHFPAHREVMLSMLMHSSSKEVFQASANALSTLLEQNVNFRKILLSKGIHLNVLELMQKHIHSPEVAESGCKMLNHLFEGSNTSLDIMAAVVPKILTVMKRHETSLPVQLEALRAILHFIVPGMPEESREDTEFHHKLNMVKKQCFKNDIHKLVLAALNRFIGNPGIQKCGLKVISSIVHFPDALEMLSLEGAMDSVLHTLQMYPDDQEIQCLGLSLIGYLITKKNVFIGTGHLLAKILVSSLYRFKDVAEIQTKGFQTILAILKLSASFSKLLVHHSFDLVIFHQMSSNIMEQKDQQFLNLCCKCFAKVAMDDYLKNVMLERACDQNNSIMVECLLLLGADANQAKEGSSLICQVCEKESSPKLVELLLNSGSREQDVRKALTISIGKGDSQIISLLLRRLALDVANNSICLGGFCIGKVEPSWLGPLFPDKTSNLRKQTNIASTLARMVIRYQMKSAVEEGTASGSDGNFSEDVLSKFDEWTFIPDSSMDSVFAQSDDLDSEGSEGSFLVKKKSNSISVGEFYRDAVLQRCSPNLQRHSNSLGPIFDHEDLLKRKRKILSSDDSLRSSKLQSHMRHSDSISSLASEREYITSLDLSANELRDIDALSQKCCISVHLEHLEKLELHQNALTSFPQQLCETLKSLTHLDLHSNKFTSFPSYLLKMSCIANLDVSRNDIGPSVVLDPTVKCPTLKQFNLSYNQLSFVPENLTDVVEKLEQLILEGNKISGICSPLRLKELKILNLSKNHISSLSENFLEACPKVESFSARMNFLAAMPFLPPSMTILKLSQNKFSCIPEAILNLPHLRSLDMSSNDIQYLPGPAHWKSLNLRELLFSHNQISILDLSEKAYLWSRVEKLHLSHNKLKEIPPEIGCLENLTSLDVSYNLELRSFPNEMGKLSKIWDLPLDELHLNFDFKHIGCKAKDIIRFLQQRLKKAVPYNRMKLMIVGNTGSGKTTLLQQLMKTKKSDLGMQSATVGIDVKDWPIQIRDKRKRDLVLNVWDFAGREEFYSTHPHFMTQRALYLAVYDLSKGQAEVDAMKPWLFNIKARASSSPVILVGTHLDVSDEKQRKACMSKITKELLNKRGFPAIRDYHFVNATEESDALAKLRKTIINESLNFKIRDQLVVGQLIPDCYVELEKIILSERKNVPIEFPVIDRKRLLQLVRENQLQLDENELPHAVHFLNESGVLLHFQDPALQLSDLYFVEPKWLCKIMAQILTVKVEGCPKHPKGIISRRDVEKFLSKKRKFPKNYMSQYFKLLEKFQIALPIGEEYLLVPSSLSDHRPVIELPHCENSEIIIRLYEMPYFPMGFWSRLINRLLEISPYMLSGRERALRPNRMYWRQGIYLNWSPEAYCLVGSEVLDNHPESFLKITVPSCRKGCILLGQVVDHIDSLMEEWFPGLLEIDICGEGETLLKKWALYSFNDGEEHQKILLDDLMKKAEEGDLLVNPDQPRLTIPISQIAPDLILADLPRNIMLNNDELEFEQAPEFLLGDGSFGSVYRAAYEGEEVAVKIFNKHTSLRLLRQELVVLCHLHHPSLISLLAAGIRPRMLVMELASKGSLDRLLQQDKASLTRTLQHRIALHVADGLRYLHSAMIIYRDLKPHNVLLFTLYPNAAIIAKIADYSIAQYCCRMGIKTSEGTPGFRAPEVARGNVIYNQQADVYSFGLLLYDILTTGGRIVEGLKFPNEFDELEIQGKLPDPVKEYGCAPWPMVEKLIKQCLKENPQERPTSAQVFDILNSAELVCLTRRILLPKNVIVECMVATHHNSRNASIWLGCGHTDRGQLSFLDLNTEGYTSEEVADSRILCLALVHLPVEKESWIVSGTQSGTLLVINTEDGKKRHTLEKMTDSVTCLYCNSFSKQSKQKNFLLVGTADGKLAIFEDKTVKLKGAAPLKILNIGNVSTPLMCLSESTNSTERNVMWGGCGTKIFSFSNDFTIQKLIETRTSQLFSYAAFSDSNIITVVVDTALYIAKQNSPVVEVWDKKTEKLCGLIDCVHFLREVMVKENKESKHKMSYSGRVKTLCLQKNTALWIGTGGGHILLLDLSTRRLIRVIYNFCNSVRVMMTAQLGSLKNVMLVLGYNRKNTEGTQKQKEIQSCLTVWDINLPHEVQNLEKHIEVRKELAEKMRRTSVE

Answered examples (3):
COMPOUND	DC50
CC1(Oc2ccc3[nH]nc(-c4cc(N5CCN(CC6(F)CCN(CC7CCN(c8ccc9c(c8)C(=O)N(C8CCC(=O)NC8=O)C9=O)CC7)CC6)CC5)ncn4)c3c2)CC1 (centres unmarked)	< 10 nM
C[C@H]1CN(c2cc(-c3n[nH]c4cc(F)c(OC5(C)CC5)cc34)ncn2)CCN1CC1(F)CCN(CC2CCN(c3ccc4c(c3)C(=O)N(C3CCC(=O)NC3=O)C4=O)CC2)CC1 (some centres unmarked)	< 10 nM
CC1(Oc2ccc3[nH]nc(-c4cc(N5CCC(CN6CCN(CC7CCN(c8ccc9c(c8)C(=O)N(C8CCC(=O)NC8=O)C9=O)CC7)CC6)CC5)ncc4F)c3c2)CC1 (centres unmarked)	50 to 100 nM

Record CC1(Oc2ccc3n[nH]c(-c4cc(N5CC(F)(CN6CCN(CC7CCN(c8ccc9c(c8)C(=O)N(C8CCC(=O)NC8=O)C9=O)CC7)CC6)C5)ncn4)c3c2)CC1 (centres unmarked) , field DC50: < 10 nM

Form: compound = CC1(Oc2ccc3[nH]nc(-c4cc(N5CCN(C[C@H]6CCN(CC7CCN(c8ccc9c(c8)C(=O)N(C8CCC(=O)NC8=O)C9=O)CC7)C(=O)C6)CC5)ncn4)c3c2)CC1 (single isomer, unassigned) ; DC50 = < 10 nM

Lookup result for C[C@H]1CN(c2cc(-c3n[nH]c4ccc(OC5(C)CC5)cc34)ncn2)CCN1CCC1CCN(CC2CCN(c3cccc4c3C(=O)N(C3CCC(=O)NC3=O)C4=O)CC2)CC1 (some centres unmarked) ; measured DC50: < 10 nM

The recorded DC50 for entry CC1(Oc2ccc3[nH]nc(-c4cc(N5CCC(CN6CCC(F)(CN7CCN(c8ccc9c(c8)C(=O)N(C8CCC(=O)NC8=O)C9=O)CC7)CC6)CC5)ncn4)c3c2)CC1 (centres unmarked) equals < 10 nM

---

# DC50 annotations
molecular target: G2019S LRRK2 (Homo sapiens, UniProt Q5S007, G2019S); construct: expressed in transfected cells; host or cells: HEK293 (ATCC CRL-1573), transient transfection, mammalian expression vector with ubiquitin promoter; assay: LRRK2 degradation assay, HiBit-tagged G2019S LRRK2 expressed from plasmid in HEK293 cells (Nano-Glo Dual-Luciferase); format: cell-based; details: HiBit-tagged G2019S LRRK2 in HEK293 cells, 24 hours

Below are worked cases with known answers.
COMPOUND	RESULT
CC1(Oc2ccc3[nH]nc(-c4cc(N5CCN(C[C@@H]6CCN(CC7CCN(c8ccc9c(c8)C(=O)N(C8CCC(=O)NC8=O)C9=O)CC7)C(=O)C6)CC5)ncn4)c3c2)CC1 (single isomer, unassigned) [Compound 103]	< 10 nM
C[C@H]1CN(c2cc(-c3[nH]nc4ccc(OC5(C)CC5)cc34)ncn2)CCN1CC1CCN(CC2CCN(c3cccc4c3C(=O)N(C3CCC(=O)NC3=O)C4=O)CC2)CC1 (stereo partly drawn) [Compound 137]	< 10 nM

Sure, the documented DC50 for C[C@H]1CN(c2cc(-c3n[nH]c4ccc(OC5(C)CC5)cc34)ncn2)CCN1CC1(F)CCN(CC2CCN(c3ccc4c(c3)C(=O)N(C3CCC(=O)NC3=O)C4=O)CC2)CC1 (stereo partly drawn) [Compound 69] is < 10 nM
